Target: ADP-induced human platelet aggregation (Homo sapiens, UniProt P05106+P08514)
Sequence (P08514 32-1039): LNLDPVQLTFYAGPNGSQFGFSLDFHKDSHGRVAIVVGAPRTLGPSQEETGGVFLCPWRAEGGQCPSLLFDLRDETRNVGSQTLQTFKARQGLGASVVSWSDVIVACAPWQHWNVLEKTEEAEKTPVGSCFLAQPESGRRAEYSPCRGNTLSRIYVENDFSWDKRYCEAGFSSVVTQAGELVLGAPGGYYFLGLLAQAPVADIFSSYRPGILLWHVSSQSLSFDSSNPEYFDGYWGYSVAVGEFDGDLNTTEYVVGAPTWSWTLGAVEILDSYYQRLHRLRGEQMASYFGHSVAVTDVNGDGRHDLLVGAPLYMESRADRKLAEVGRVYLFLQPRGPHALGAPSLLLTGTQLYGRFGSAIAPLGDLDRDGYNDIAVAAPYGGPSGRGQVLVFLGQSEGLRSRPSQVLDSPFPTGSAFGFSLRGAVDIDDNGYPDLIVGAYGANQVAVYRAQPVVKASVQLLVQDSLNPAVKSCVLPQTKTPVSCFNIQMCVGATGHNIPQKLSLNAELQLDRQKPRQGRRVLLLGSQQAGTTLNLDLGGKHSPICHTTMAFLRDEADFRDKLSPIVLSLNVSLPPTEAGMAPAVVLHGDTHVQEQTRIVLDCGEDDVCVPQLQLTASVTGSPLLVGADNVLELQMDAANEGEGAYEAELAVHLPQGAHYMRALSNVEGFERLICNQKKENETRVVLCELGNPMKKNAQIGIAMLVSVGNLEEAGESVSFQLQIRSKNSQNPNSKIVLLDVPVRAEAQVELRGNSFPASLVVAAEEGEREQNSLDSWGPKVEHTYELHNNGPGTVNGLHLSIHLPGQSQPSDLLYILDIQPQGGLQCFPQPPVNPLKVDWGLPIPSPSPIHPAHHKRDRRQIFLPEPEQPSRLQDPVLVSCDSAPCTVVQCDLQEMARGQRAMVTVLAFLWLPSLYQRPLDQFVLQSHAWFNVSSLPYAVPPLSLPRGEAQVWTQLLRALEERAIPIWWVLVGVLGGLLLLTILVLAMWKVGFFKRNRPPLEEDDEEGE
Sequence (P05106 27-788): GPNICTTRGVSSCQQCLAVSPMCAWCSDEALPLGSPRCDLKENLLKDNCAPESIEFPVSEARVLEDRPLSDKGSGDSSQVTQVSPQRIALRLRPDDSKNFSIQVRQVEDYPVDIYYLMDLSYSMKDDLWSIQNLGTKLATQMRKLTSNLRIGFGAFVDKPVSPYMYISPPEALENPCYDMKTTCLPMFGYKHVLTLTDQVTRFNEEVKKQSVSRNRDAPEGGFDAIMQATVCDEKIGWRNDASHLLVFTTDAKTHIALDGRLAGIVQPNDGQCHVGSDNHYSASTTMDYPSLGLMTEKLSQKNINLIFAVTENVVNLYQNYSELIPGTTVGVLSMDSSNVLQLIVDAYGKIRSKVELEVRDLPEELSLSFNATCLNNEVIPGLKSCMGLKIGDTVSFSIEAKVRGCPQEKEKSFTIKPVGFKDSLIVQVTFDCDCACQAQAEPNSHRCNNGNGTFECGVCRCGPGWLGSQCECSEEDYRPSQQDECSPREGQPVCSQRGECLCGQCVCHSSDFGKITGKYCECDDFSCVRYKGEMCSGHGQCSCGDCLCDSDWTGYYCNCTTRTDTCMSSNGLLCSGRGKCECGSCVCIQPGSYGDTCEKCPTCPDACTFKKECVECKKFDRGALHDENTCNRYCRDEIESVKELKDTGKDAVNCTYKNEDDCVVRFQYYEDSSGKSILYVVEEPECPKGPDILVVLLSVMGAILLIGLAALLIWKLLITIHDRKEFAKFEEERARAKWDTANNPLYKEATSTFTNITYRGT
Assay: standard aggregation inhibition assay (ADP-induced human platelet aggregation)
Assay type: cell-based
Details: PAI activity, Example 15; read-out: Appr.IC20
Where a SMILES comes first, the peptide text is derived from it. Bridges are numbered along the chain shown (N, C = ends). [ ]: non-standard residue; d: D form. NMeR = CN[C@@H](CCCNC(=N)N)C(=O)O; hArg = N=C(N)NCCCC[C@H](N)C(=O)O; Pen = CC(C)(S)[C@H](N)C(=O)O; Aib = CC(C)(N)C(=O)O; βAla = NCCC(=O)O; Mpa = O=C(O)CCS; Sar = CNCC(=O)O
readout: IC20 (nM)
Return type: number; implicit unit nM.

Sample answers from the record:
- molecule: "CC1(C)NC(=O)CCSSC[C@@H](C(N)=O)NC(=O)[C@@H]2CCCN2C(=O)[C@H](Cc2c[nH]c3ccccc23)NC(=O)[C@H](CC(=O)O)NC(=O)CNC(=O)[C@H](CCCCNC(=N)N)NC1=O [PAI 83, Mpr-Aib-Har-G-D-W-P-C-NH2] ([Mpa][Aib][hArg]GDWPC-NH2; disulfide 1-8)"
  unit.abbreviation: "nM"
  IC20: 2200
- molecule: "CN1C(=O)CCSSC[C@@H](C(N)=O)NC(=O)[C@@H]2CCCN2C(=O)[C@H](Cc2c[nH]c3ccccc23)NC(=O)[C@H](CC(=O)O)NC(=O)CNC(=O)[C@H](CCCCNC(=N)N)NC(=O)[C@@H]1CCCNC(=N)N [PAI 84, Mpr-(N-Me-Arg)-Har-G-D-W-P-C-NH2] ([Mpa][NMeR][hArg]GDWPC-NH2; disulfide 1-8)"
  unit.abbreviation: "nM"
  IC20: 250
- molecule: "N=C(N)NCCCC[C@@H]1NC(=O)[C@H](CO)NC(=O)CCSSC[C@@H](C(N)=O)NC(=O)[C@@H]2CCCN2C(=O)[C@H](Cc2c[nH]c3ccccc23)NC(=O)[C@H](CC(=O)O)NC(=O)CNC1=O [PAI 92, Mpr-S-Har-G-D-W-P-C-NH2] ([Mpa]S[hArg]GDWPC-NH2; disulfide 1-8)"
  unit.abbreviation: "nM"
  IC20: 240
- molecule: "C[C@@H]1NC(=O)CCSSC[C@@H](C(N)=O)NC(=O)[C@@H]2CCCN2C(=O)[C@H](Cc2c[nH]c3ccccc23)NC(=O)[C@H](CC(=O)O)NC(=O)CNC(=O)[C@H](CCCCNC(=N)N)NC1=O [PAI 82, Mpr-A-Har-G-D-W-P-C-NH2] ([Mpa]A[hArg]GDWPC-NH2; disulfide 1-8)"
  unit.abbreviation: "nM"
  IC20: 120

// query IC20 value for entry CC1(C)SSCCC(=O)N[C@@H](CC(=O)O)C(=O)N[C@@H](CCCCNC(=N)N)C(=O)NCC(=O)N[C@@H](CC(=O)O)C(=O)N[C@@H](Cc2c[nH]c3ccccc23)C(=O)N2CCC[C@H]2C(=O)N[C@@H]1C(N)=O [PAI 102, Mpr-D-(Har)-G-D-W-P-Pen-NH2] ([Mpa]D[hArg]GDWP[Pen]-NH2; disulfide 1-8)
4040

// query IC20 value for entry N=C(N)NCCCC[C@@H]1NC(=O)[C@@H]2CCCN2C(=O)CCSSC[C@@H](C(N)=O)NC(=O)[C@@H]2CCCN2C(=O)[C@H](Cc2c[nH]c3ccccc23)NC(=O)[C@H](CC(=O)O)NC(=O)CNC1=O [PAI 80, Mpr-P-Har-G-D-W-P-C-NH2] ([Mpa]P[hArg]GDWPC-NH2; disulfide 1-8)
1290

// query IC20 value for entry N=C(N)NCCCC[C@@H]1NC(=O)CNC(=O)CCSSC[C@@H](C(N)=O)NC(=O)[C@@H]2CCCN2C(=O)[C@H](Cc2c[nH]c3ccccc23)NC(=O)[C@H](CC(=O)O)NC(=O)CNC1=O [PAI 81, Mpr-G-Har-G-D-W-P-C-NH2] ([Mpa]G[hArg]GDWPC-NH2; disulfide 1-8)
7470

// query IC20 value for entry N=C(N)NCCCC[C@@H]1NC(=O)CCSSC[C@@H](C(N)=O)NC(=O)CNC(=O)[C@@H]2CCCN2C(=O)[C@H](Cc2c[nH]c3ccccc23)NC(=O)[C@H](CC(=O)O)NC(=O)CNC1=O [PAI 95, Mpr-Har-G-D-W-P-G-C-NH2] ([Mpa][hArg]GDWPGC-NH2; disulfide 1-8)
8660

// query IC20 value for entry N=C(N)NCCCC[C@@H]1NC(=O)CCNC(=O)CCSSC[C@@H](C(N)=O)NC(=O)[C@@H]2CCCN2C(=O)[C@H](Cc2c[nH]c3ccccc23)NC(=O)[C@H](CC(=O)O)NC(=O)CNC1=O [PAI 87, Mpr-(β-Ala)-Har-G-D-W-P-C-NH2] ([Mpa][βAla][hArg]GDWPC-NH2; disulfide 1-8)
920

// query IC20 value for entry CN1CC(=O)N[C@H](C(N)=O)CSSCCC(=O)N[C@@H](CCCCNC(=N)N)C(=O)NCC(=O)N[C@@H](CC(=O)O)C(=O)N[C@@H](Cc2c[nH]c3ccccc23)C(=O)N2CCC[C@H]2C1=O [PAI 98, Mpr-Har-G-D-W-P-(Sar)-C-NH2] ([Mpa][hArg]GDWP[Sar]C-NH2; disulfide 1-8)
310

// query IC20 value for entry C[C@H]1NC(=O)[C@@H]2CCCN2C(=O)[C@H](Cc2c[nH]c3ccccc23)NC(=O)[C@H](CC(=O)O)NC(=O)CNC(=O)[C@H](CCCCNC(=N)N)NC(=O)CCSSC[C@@H](C(N)=O)NC1=O [PAI 96, Mpr-Har-G-D-W-P-A.dagger.-C-NH2] ([Mpa][hArg]GDWP[dA]C-NH2; disulfide 1-8)
230

---

Target: ADP-induced human platelet aggregation (Homo sapiens, UniProt P05106+P08514)
Assay: standard aggregation inhibition assay (ADP-induced human platelet aggregation)
Details: ADP-induced human platelet aggregation; read-out: Appr, IC50
Where a SMILES comes first, the peptide text is derived from it. Bridges are numbered along the chain shown (N, C = ends). [ ]: non-standard residue; d: D form. Pen = CC(C)(S)[C@H](N)C(=O)O
readout: IC50 (µM)
Return type: number; implicit unit µM.

- molecule: "CC(=O)N[C@H]1CSSC(C)(C)[C@@H](C(N)=O)NC(=O)[C@H](CC(=O)O)NC(=O)CNC(=O)[C@H](CCCNC(=N)N)NC1=O [Analog #11, Acetyl-C-R-G-D-Pen-NH2] (Ac-CRGD[Pen]-NH2; disulfide 1-5)"
  readout: "IC50"
  test.result: 5

Request: IC50, test system ADP-induced human platelet aggregation (Homo sapiens, UniProt P05106+P08514), entry C[C@H](NC(=O)[C@@H]1CSSC[C@H](NC(=O)CN)C(=O)N[C@@H](CCCCN)C(=O)NCC(=O)N[C@@H](CC(=O)O)C(=O)N[C@@H](Cc2c[nH]c3ccccc23)C(=O)N2CCC[C@H]2C(=O)N1)C(N)=O [Analog #4, G-C-K-G-D-W-P-C-A-NH2] (H-GCKGDWPCA-NH2; disulfide 2-8)
5

---

Some molecules, each annotated with its measured IC50.
Target: ADP-induced human platelet aggregation (Homo sapiens, UniProt P05106+P08514)
Experiment: standard aggregation inhibition assay (ADP-induced human platelet aggregation)
Details: ADP-induced human platelet aggregation; read-out: Appr, IC50
Text: 2. Standard assays directly applied to platelet aggregation, such as those described by Gann, Z.-R., et al., J Biol Chem (1988) 263:19827-19832; Huang, T. F., et al., J Biol Chem (1987) 262:16157-16163; Biochemistry (1989) 28:661-666, cited above and incorporated herein by reference;
*1 amine or outer side, *2 acyl side, *3 side chain or, on linkers, in order; H or OH if unused. Where a SMILES comes first, the peptide text is derived from it. Bridges are numbered along the chain shown (N, C = ends). [ ]: non-standard residue; d: D form. X2 = CC(=N)NCCCC[C@H](N[*:1])C(=O)[*:2]; dPen = CC(C)(S)[C@@H](N)C(=O)O; Pen = CC(C)(S)[C@H](N)C(=O)O; Mpa = O=C(O)CCS; Sar = CNCC(=O)O

Sample answers from the record:
- molecule: "CC1(C)SSCCC(=O)N[C@@H](CCCCN)C(=O)NCC(=O)N[C@@H](CC(=O)O)C(=O)N[C@@H](Cc2c[nH]c3ccccc23)C(=O)N2CCC[C@H]2C(=O)N[C@H]1C(N)=O [Analog #52, Mpr-K-G-D-W-P-Pen.dagger.-NH2] ([Mpa]KGDWP[dPen]-NH2; disulfide 1-7)"
  assayed.target: "ADP-induced human platelet aggregation (Homo sapiens, UniProt P05106+P08514)"
  IC50: "5 µM"
- molecule: "C[C@H]1NC(=O)[C@H](CCCCN)NC(=O)[C@@H](N)CSSC[C@@H](C(N)=O)NC(=O)[C@@H]2CCCN2C(=O)[C@H](Cc2c[nH]c3ccccc23)NC(=O)[C@H](CC(=O)O)NC1=O [Analog #38, C-K-A.dagger.-D-W-P-C-NH2] (H-CK[dA]DWPC-NH2; disulfide 1-7)"
  assayed.target: "ADP-induced human platelet aggregation (Homo sapiens, UniProt P05106+P08514)"
  IC50: "> 200 µM"
- molecule: "CN1CC(=O)N[C@@H](CC(=O)O)C(=O)N[C@@H](Cc2c[nH]c3ccccc23)C(=O)N2CCC[C@H]2C(=O)N[C@H](C(N)=O)CSSC[C@H](N)C(=O)N[C@@H](CCCCN)C1=O [Analog #43, C-K-(Sar)-D-W-P-C-NH2] (H-CK[Sar]DWPC-NH2; disulfide 1-7)"
  assayed.target: "ADP-induced human platelet aggregation (Homo sapiens, UniProt P05106+P08514)"
  IC50: "50 µM"

// query IC50 value for entry CC(=N)NCCCC[C@@H]1NC(=O)CCSSC(C)(C)[C@@H](C(N)=O)NC(=O)[C@@H]2CCCN2C(=O)[C@H](Cc2c[nH]c3ccccc23)NC(=O)[C@H](CC(=O)O)NC(=O)CNC1=O [Analog #69, Mpr-(Acetimidyl-Lys)-G-D-W-P-Pen-NH2] ([Mpa][X2]GDWP[Pen]-NH2; disulfide 1-7)
0.5 µM
